assay: 1-octanol/water distribution coefficient, log P of the compound; type: physicochemical
The reader will find reported logP values listed item by item below.

{"structure smiles": "C#CCc1c(Cl)cc(N/C=N/OCOC)cc1Cl", "readout": "logP", "test value": 3.2}
{"structure smiles": "CCO/N=C/Nc1cc(Cl)c(OCCCl)c(Cl)c1", "readout": "logP", "test value": 4}
{"structure smiles": "C#CCc1c(Cl)cc(N/C=N/OCCC)cc1Cl", "readout": "logP", "test value": 4}
{"structure smiles": "C#CCc1c(Cl)cc(N/C=N/OCC=C)cc1Cl", "readout": "logP", "test value": 3.7}

**Q:** I would be grateful if you could share the reported logP for C#CCc1c(Cl)cc(N/C=N/OCSC)cc1Cl .
**A:** 3.6

**Q:** I would be grateful if you could share the reported logP for C#CCc1c(Cl)cc(N/C=N/Oc2ccccc2)cc1Cl .
**A:** 4.4

**Q:** I would be grateful if you could share the reported logP for CCO/N=C/Nc1cc(Cl)c(OCC(C)C)c(Cl)c1 .
**A:** 5
